System: SULT2A1
protocol_summary: SULT2A1 enzyme activity assay: sulfate conjugation of DHEA with 35S-PAPS, COS-1 cytosol preparations of recombinant allozymes
Assay type: biochemical, human
measurement_parameters: percentage of WT SULT2A1 enzyme activity; 5 μM DHEA, 0.4 μM 35S-PAPS; COS-1 cytosol; corrected for transfection efficiency

molecule	Enzyme Activity (%)
WT: recombinant wild type (reference) human SULT2A1 polypeptide, SEQ ID NO:3, expressed in COS-1 cells (protein, listed as Homo Sapiens) MSDDFLWFEGIAFPTMGFRSETLRKVRDEFVIRDEDVIILTYPKSGTNWLAEILCLMHSKGDAKWIQSVPIWERSPWVESEIGYTALSESESPRLFSSHLPIQLFPKSFFSSKAKVIYLMRNPRDVLVSGYFFWKNMKFIKKPKSWEEYFEWFCQGTVLYGSWFDHIHGWMPMREEKNFLLLSYEELKQDTGRTIEKICQFLGKTLEPEELNLILKNSSFQSMKENKMSNYSLLSVDYVVDKAQLLRKGVSGDWKNHFTVAQAEDFDKLFQEKMADLPRELFPWE	100
